experimental_details: AUC (0 to infinity) in C57BL/6 mouse at 40 mg/kg, po formulated in 0.5% methylcellulose
Format: ADME, organism-based
Parameters: dose 40 mg/kg, route oral, time infinity
conditions: in vivo
measured_property: AUC(0-inf) (ng·h/mL)
The reply should be a number in ng·h/mL, with the unit left off.

So, "O=C1c2ccccc2-n2c1nc1c(c2=O)CCCC1" ? Its AUC(0-inf) was 5280

----------
Catalogue of molecules with associated log10(MIC)
System: Mycobacterium tuberculosis
experimental_details: Antitubercular activity against Mycobacterium tuberculosis H37Rv incubated at 37 degC for 14 days in presence of 40% human serum by microplate alamar blue assay
Assay type: functional
conditions: 336 h
For clarity, the numbers are log10 values of MIC expressed in µg/mL.

The following molecules have reported results that may help.
>>> measured_number("O=C1c2ccc(N3CCCCC3)cc2-n2c1nc1ncccc1c2=O")
1.20
>>> measured_number("O=C1c2ccccc2-n2c1nc1ccncc1c2=O")
-0.60
>>> measured_number("O=C1c2cc(C(=O)N3CCOCC3)ccc2-n2c1nc1ccccc1c2=O")
1.51
>>> measured_number("O=C1c2cc(Br)ccc2-n2c1nc1ccncc1c2=O")
-0.30
>>> measured_number("Cl.O=C1c2ccc(N3CCNCC3)cc2-n2c1nc1ccccc1c2=O")
0.90
>>> measured_number("CCN(CCN(C)C)c1ccc2nc3n(c(=O)c2c1)-c1ccc(Cl)cc1C3=O")
1.20
>>> measured_number("O=C1c2ccccc2-n2c1nc1ncccc1c2=O")
0.90
>>> measured_number("O=C1c2cc([N+](=O)[O-])ccc2-n2c1nc1ccccc1c2=O")
-0.30
>>> measured_number("O=C1C2=Nc3ccccc3CN2c2ccc(OC(F)(F)F)cc21")
-0.30

Next molecule, log10(MIC) to be filled in.
So, "O=C1c2cc(C(=O)N3CCCCC3)ccc2-n2c1nc1ccccc1c2=O" ? Its log10(MIC) was 0.30
